Hi there, I'd appreciate the recorded EC50 for every entry that follows.
molecular target: EP2 (Homo sapiens); assay: EP2 cAMP; type: cell-based
Sequence (P43116 whole entry): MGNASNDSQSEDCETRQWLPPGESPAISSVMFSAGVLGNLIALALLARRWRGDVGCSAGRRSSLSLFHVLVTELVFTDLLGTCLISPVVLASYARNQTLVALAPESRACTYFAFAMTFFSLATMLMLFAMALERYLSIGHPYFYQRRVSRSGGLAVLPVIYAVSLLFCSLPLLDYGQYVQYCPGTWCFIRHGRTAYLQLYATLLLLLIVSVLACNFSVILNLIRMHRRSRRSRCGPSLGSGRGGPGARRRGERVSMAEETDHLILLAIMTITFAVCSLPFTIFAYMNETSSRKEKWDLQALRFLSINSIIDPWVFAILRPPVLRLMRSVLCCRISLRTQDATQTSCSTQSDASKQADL
Answers are plain numbers, in nM.

In the examples that follow, each entry is paired with its recorded EC50.
# get_value(readout='EC50', item= O=C(O)c1ccc(CCC[C@@H]2[C@@H](CNCc3ccccc3)[C@H](O)C[C@H]2Cl)s1 )
6

# get_value(readout='EC50', item= CCc1cccc(CCC[C@@H]2[C@@H](CCCc3ccc(C(=O)O)s3)[C@H](Cl)C[C@H]2O)c1 )
0.9

# get_value(readout='EC50', item= CN(Cc1ccccc1)C[C@@H]1[C@@H](CCCc2ccc(C(=O)O)s2)[C@H](Cl)C[C@H]1O )
3.6

For the next question, use this compound.
# get_value(readout='EC50', item= O=C(O)c1ccc(CCC[C@@H]2[C@@H](CCCc3cc(Cl)cc(Cl)c3)[C@H](O)C[C@H]2Cl)s1 )
1

----------
Hi there, I'd appreciate the recorded pEC50 for every entry that follows.
target: EP2 (Homo sapiens); assay: EP2 flipr; assay type: cell-based
Numbers only, as −log10 of the molar value.

The following compounds each have a reported value; give each one's pEC50.
1. CCc1cccc(CCC[C@@H]2[C@@H](CCCc3ccc(C(=O)O)s3)[C@H](Cl)C[C@H]2O)c1
2. O=C(O)c1ccc(CCC[C@@H]2[C@@H](CCCc3cccc(C(F)(F)F)c3)[C@H](O)C[C@H]2Cl)s1

1. 4.86
2. 5.60

The following compounds each have a reported value; give each one's pEC50.
1. O=C(O)CCC/C=C\C[C@@H]1[C@@H](COCc2cccc(C(F)(F)F)c2)[C@H](O)C[C@H]1Cl
2. O=C(O)c1ccc(CCC[C@@H]2[C@@H](CCCc3cc(Cl)cc(Cl)c3)[C@H](O)C[C@H]2Cl)s1
3. O=C(O)c1ccc(CCC[C@@H]2[C@@H](C=C=Cc3cccc(C(F)(F)F)c3)[C@H](O)C[C@H]2Cl)s1
4. CCc1cccc(COC[C@@H]2[C@@H](CCCc3ccc(C(=O)O)s3)[C@H](Cl)C[C@H]2O)c1

6.71
5.00
5.49
6.59

Origin of measurements: patent US8592413B2
